# growth per entry
- System: SK-MEL-28 melanoma
- assay.method.text: NCI-60 one-dose screen, 48 h (100 = growth as untreated, 0 = no growth, -100 = all killed)
- settings: 10 µM unless noted
- Description: Growth inhibition of the SK-MEL-28 human tumor cell line is measured as a screen for anti-cancer activity. Cells are grown in 96 well plates and exposed to the test compound for 48 hours. Compounds are tested at a single concentration, which is 10^-5 M for most compounds. The reported endpoint is percent growth (GI% or GIPRCNT), where numbers from 0 - 100% represent growth inhibition, and numbers from -100% - 0 represent cell death. For example, a value of 40 represents 60% growth inhibition. […]
Compounds without any hit were thinned out: in the full panel of roughly 83,000, 20% have a hit. Activity calls are given as the source filed them. The calls were made as follows: active = growth percent below 10; inactive = the rest.
measured.metric: growth

compound	observed
COc1cc2cc(Oc3ccc(NC(=O)c4cccc(C(F)(F)F)c4)cc3)c(C)nc2cc1OCCN1CCCCC1	-88.5% (active)
COc1ccc2[nH]cc(-c3cc(N)n4nc(-c5c[nH]c6ccc(OC)cc56)cc4n3)c2c1	-69.4% (active)
NS(=O)(=O)c1cccc(Nc2nc(SCC(=O)c3ccc(Br)cc3)nc3ccccc23)c1	84.4% (inactive)
CCCCN1C(=O)/C(=c2\sc3n(c2=O)C2C(NN=3)N(CC)C(=O)N2CC)c2cc(Cl)ccc21 (stereo not given)	72.1% (inactive)
COc1ccc(-c2nc3ccc(-c4nnc(SCC(=O)Nc5ccc(C(=O)/C=C/c6ccc(Cl)cc6)cc5)o4)cc3[nH]2)cc1OC	105% (inactive)
CN(C)c1ccc(-c2c(NC(C)(C)C)nc3c(OCCc4ccccc4)cccn23)cc1	35.1% (inactive)
Clc1ccc2c(NCCCN3CCOCC3)c3oc4ccccc4c3nc2c1	70.6% (inactive)
CN(C)CCCOc1c2ccc(Cl)cc2nc2c1oc1ccc(Cl)cc12	4.58% (active)
O=C(CN1C(=O)/C(=C/c2ccccc2)SC1=S)N1CCOCC1	96.5% (inactive)
CN1CCN(Cc2ccc(NC(=O)c3cncc(C#Cc4cnc5ccc(N6CCSCC6)nn45)c3)cc2C(F)(F)F)CC1	-48.1% (active)
CN(C)CCCNc1c2ccccc2nc2c1oc1ccc(Cl)cc12	43.8% (inactive)
N#Cc1c(-c2ccc(Cl)cc2)nc(SCc2ccccc2)nc1N1CCNCC1	108% (inactive)
CC(C)Sc1nc(Nc2ccc(S(N)(=O)=O)cc2)c(C#N)c(-c2ccc(F)cc2)n1	78% (inactive)
[Cl][Ru].c1ccc(-c2cccc(-c3ccccn3)n2)nc1.c1ccc(-c2ccnc3c2ccc2c(-c4ccccc4)ccnc23)cc1	31.3% (inactive)
CCN1C(=S)N(CC)C2C1NN=C1SC(c3ccccc3)=CC(=O)N12 (stereo not given)	99.5% (inactive)
